# Method notes: qHTS assay for measurement of the activity of small molecule inhibitors on Zika virus induced Caspase-3 activity in human iPSC derived neural progenitor cells (hNPCs) (AID 1224857); further: nearly all actives have a fitted effect of over 65% in size
# Protocol conditions: hNPCs ZIKV-induced caspase-3/7, Caspase-Glo luminescence, 6 h; series mostly up to 45.7 µM
Inconclusive results are not listed. Activity calls are given as the source filed them. The call rests on the fitted dose curve; in most records, active means well fitted inhibition curve with a large enough effect; inconclusive means small, poorly fitted or top-dose-only effect; inactive means no such curve, though single readings can be large or run the other way.
Reported endpoint: outcome

- C/C(=C\c1ccc(C(=O)O)cc1)c1ccc2c(c1)C(C)(C)CCC2(C)C: inactive
- CN1CCC2(CCN3CCc4c(oc5ccccc45)C3C2)N(C)C1=O (configuration not stated): inactive
- CN1CCc2cc(Cl)c(O)cc2[C@@H](c2ccccc2)C1: inactive
- COc1ccc(CCN(C)CCc2ccc(OC)c(OC)c2)cc1OC: inactive
- c1ccc2nc(C3=NCCN3)ccc2c1: inactive
- Cc1cccc(C2CN(C)CCc3c2cc(O)c(O)c3Cl)c1 (configuration not stated): inactive
- Cc1cc(Cn2cnc3c2C[C@@H](C(=O)O)N(C(=O)C(c2ccccc2)c2ccccc2)C3)ccc1N: inactive
- CCN(c1nc(N)c(C(=O)N=C(N)N)nc1Cl)C(C)C: inactive
- O=c1ccc2c(OCCCCc3ccccc3)c3ccoc3cc2o1: inactive
- CCSC(=N)N: inactive
- NC(Cc1cccc(-c2ccccc2CP(=O)(O)O)c1)C(=O)O (configuration not stated): inactive
- NCCCCN=C(N)N: inactive

* * *

# Measured target: Ubiquitin carboxyl-terminal hydrolase 2 (Homo sapiens) (UniProt O75604)
# Sequence (O75604 whole entry, looked up): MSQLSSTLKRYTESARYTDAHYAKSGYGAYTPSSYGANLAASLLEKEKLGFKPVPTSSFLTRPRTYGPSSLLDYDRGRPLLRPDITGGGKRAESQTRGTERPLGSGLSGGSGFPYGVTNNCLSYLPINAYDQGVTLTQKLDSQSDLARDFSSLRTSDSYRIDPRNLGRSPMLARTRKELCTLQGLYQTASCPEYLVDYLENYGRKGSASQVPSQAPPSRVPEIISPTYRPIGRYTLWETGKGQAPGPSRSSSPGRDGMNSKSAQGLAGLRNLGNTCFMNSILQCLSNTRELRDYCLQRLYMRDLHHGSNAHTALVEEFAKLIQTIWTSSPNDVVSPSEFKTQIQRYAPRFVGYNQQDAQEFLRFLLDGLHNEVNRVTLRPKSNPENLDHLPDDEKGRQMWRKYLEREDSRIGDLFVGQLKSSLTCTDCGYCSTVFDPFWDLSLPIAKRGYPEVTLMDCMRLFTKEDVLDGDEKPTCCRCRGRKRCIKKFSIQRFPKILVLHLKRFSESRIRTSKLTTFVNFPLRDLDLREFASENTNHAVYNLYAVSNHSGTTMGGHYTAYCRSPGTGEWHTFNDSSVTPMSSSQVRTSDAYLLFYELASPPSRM
# Method notes: qHTS Validation Assay for Inhibitors of Ubiquitin-specific Protease USP2a Using CHOP2 as the Reporter (AID 463106)
# Protocol conditions: USP2a cleavage of CHOP2 reporter, enzymatic; series mostly up to 38.3 µM
Results filed as inconclusive are left out. The source made the active and inactive calls. The call rests on the fitted dose curve; in most records, active means well fitted inhibition curve with a large enough effect; inconclusive means small, poorly fitted or top-dose-only effect, or effect the other way; inactive means flat fitted curve, though single readings scatter.
Reported endpoint: outcome

* CNC(=O)c1cc2c(cn1)[nH]c1ccccc12 | inactive
* CC(C)Cn1c(=O)n(C)c(=O)c2[nH]cnc21 | inactive
* O=C(O)c1cc2cc(F)ccc2[nH]1 | inactive
* CN(C)C(=O)/N=N/C(=O)N(C)C | inactive
* COc1cc([C@@H]2c3cc4c(cc3[C@H](O)C3COC(=O)[C@@H]32)OCO4)cc(OC)c1OC (stereo partly specified) | inactive
* CCCCCCN(CCCCCC)C(=O)Cc1c(-c2ccc(F)cc2)[nH]c2ccccc12 | inactive
* Cc1ccc2c(c1)C(N1CCN(C)CC1)=Nc1cccnc1N2 | inactive
* CCCCCCCCCC[Si](C)(C)CCC(=O)NC(Cc1ccc(C)cc1)c1ccccc1 (stereo unspecified) | inactive
* C[C@H](O)C(=O)C1=Nc2c(nc(N)[nH]c2=O)NC1 | inactive
* CCCCCCCCCCC(C)(C)C(=O)Nc1c(OC)cc(OC)cc1OC | inactive
* CC(N)(Cc1ccc(O)c(O)c1)C(=O)O (stereo unspecified) | inactive

* * *

# Measured target: Parathyroid hormone/parathyroid hormone-related peptide receptor (Homo sapiens)
# Method notes: qHTS for PTHR1 Agonists: Optimization Screen against the NCGC LOPAC library (AID 1347079);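 further: GloSensor cAMP luminescence in HEK-293 GP2 cells expressing human PTHR1 with IBMX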
# Protocol conditions: HEK293 GP2 PTHR1 GloSensor cAMP luminescence, 1 h; series mostly up to 57.1 µM
Activity calls are given as the source filed them. Calls come from the whole dose curve; as a rule, active = well fitted activation curve with a large enough effect; inconclusive = small, poorly fitted or top-dose-only effect; inactive = no such curve, though single readings can be large or run the other way.
Outcomes: active, inactive

* CN1CCN(c2nc3cc(C(F)(F)F)ccc3n3cccc23)CC1 | inactive
* CCn1c(=O)[nH]c2cc(Cl)c(Cl)cc21 | inactive
* Nc1ccc(-c2ccc3ccccc3n2)cc1 | inactive
* C#CCn1c(=O)c2c(ncn2C)n(C)c1=O | inactive
* CC(C)Cn1c(=O)n(C)c(=O)c2[nH]cnc21 | active
* Cc1cc(Cn2cnc3c2C[C@@H](C(=O)O)N(C(=O)C(c2ccccc2)c2ccccc2)C3)ccc1N | inactive
* CNc1cc(NS(=O)(=O)c2ccc(N)cc2)nc(NC)n1 | inactive
* CC(=O)NCCc1c[nH]c2ccc(O)cc12 | inactive
* Cn1c(=O)[nH]c2ncn(C)c2c1=O | inactive
* CO/N=C(\C(=O)N[C@@H]1C(=O)N2C(C(=O)O)=C(CSc3nc(=O)c(O)nn3C)CSC12)c1csc(N)n1 (some centres not stated) | inactive
* CCCCCCCCCC(=O)NC(CN1CCOCC1)[C@H](O)c1ccccc1 (some centres not stated) | inactive
* C=CCN1CCc2c(cc(O)c(O)c2Br)[C@@H](c2ccccc2)C1 | inactive
